Tested on: SR
method_description: NCI tumour cell line growth inhibition, 48 h
The source made the active and inactive calls. Rule as the data show it: active = GI50 up to about 1.1 µM and inactive = higher.
Form entry, call: pick from active, inactive

Known results for molecules:
# molecule, answer_label
measured = [
    ("Cc1cccc(CC(Cc2ccc(C)cc2C(=O)O)C(=O)O)c1 (configuration not stated)", "inactive"),
    ("CC1=C2C(=CC(C)(C)[C@@H]2O)C(=O)[C@](C)(O)C12CC2", "active"),
    ("Cc1ccc(C(=O)/C=C/c2cccc([N+](=O)[O-])c2)cc1", "inactive"),
]

[Q] State the result this test recorded for N#C[BH2-][n+]1cn(C2CC(OP(=O)(O)OCC3OC(n4cnc5c(=O)[nH]c(N)nc54)CC3O)C(CO)O2)c2nc(N)[nH]c(=O)c21 (configuration not stated) .
[A] inactive

[Q] Please give the result for CC1C2Cc3ccc(O)cc3C1(C)CCN2C (configuration not stated) too.
[A] inactive

[Q] Please give the result for Cc1ccc2[nH]c(=N/c3ccccc3C)/c(=N\c3ccccc3C)[nH]c2c1 too.
[A] inactive

[Q] Please give the result for CC1(C)OC[C@H](COCOP2(=O)Oc3ccc4ccccc4c3-c3c(ccc4ccccc34)O2)O1 too.
[A] inactive

[Q] Please give the result for Brc1ccc(CCNCCN2CCCCC2)cc1 too.
[A] inactive
